# System Tested: UniProtKB P22894
# Sequence (P22894 101-467): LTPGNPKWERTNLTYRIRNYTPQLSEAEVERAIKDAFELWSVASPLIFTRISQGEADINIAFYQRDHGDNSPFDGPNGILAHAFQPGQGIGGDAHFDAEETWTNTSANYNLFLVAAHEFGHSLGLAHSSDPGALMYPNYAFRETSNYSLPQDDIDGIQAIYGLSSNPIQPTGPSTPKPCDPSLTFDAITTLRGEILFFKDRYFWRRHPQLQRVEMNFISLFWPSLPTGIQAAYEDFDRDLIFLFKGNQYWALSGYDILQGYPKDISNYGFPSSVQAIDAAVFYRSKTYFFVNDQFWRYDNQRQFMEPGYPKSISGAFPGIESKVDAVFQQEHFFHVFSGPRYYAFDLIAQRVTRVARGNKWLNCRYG
Property Measured: IC50 (µM)
One number for each entry, in µM.

Examples with their reported IC50 follow.
Cc1cc(COc2ccc(S(=O)(=O)CC(CC3CCN(C(=O)c4ccccc4)CC3)N(O)C=O)cc2)c2ccccc2n1 (stereo not drawn): 5.8
Cc1cncc(C(CS(=O)(=O)c2ccc(OCc3cc(C)nc4c(F)cccc34)cc2)N(O)C=O)c1 (stereo not drawn): 27
Cc1ccc(C(CS(=O)(=O)c2ccc(OCc3cc(C)nc4ccccc34)cc2)N(O)C=O)cn1 (stereo not drawn): 22
CC(=O)N1CCC(=CC(CS(=O)(=O)c2ccc(OCc3cc(C)nc4ccccc34)cc2)N(O)C=O)CC1 (stereo not drawn): 50
CCC(CC)CN1CCC(CC(CS(=O)(=O)c2ccc(OCc3cc(C)nc4ccccc34)cc2)N(O)C=O)CC1 (stereo not drawn): 10

Give measured IC50 for every item shown.
1. CC(=O)N1CCC(C(CS(=O)(=O)c2ccc(OCc3cc(C)nc4ccccc34)cc2)N(O)C=O)CC1 (stereo not drawn)
2. COCc1cc(COc2ccc(S(=O)(=O)CC(C=C3CCC4(CC3)OCCO4)N(O)C=O)cc2)cc(C)n1 (stereo not drawn)
3. Cc1ccc(CCCC(CS(=O)(=O)c2ccc(OCc3cc(C)nc4ccccc34)cc2)N(O)C=O)cc1 (stereo not drawn)
4. COc1ccc(CN2C(=O)SCC2C(CS(=O)(=O)c2ccc(OCc3cc(C)nc4ccccc34)cc2)N(O)C=O)cc1 (stereo not drawn)
5. COCc1cc(COc2ccc(S(=O)(=O)CC(C=C3CCC(=O)CC3)N(O)C=O)cc2)cc(C)n1 (stereo not drawn)
6. Cc1cccc(CCC(CS(=O)(=O)c2ccc(OCc3cc(C)nc4ccccc34)cc2)N(O)C=O)n1 (stereo not drawn)
7. Cc1cc(COc2ccc(S(=O)(=O)CC(N(O)C=O)C3(C)CCOCC3)cc2)c2ccccc2n1 (stereo not drawn)

Completion:
1. 18
2. 32
3. 25
4. 58
5. 60
6. 33
7. 10

Give measured IC50 for every item shown.
1. COCC(=O)N1CCN(CC(CS(=O)(=O)c2ccc(OCc3cc(C)nc4ccccc34)cc2)N(O)C=O)CC1 (stereo not drawn)
2. Cc1cc(COc2ccc(S(=O)(=O)CC(C=C3CCN(C(=O)C(C)(C)C)CC3)N(O)C=O)cc2)c2ccccc2n1 (stereo not drawn)

Completion:
[25, 5]
